List of Nuclear Count values.
Test system: SH-SY5Y cells
Measurement protocol: Nuclear count from microscopy images (cellular growth and toxicity); also: reference of the scale not given here
Protocol conditions: PKIS2 primary screening

// Nuclear Count lookup, key: Nc1nccc(-c2ccc3c(N)n[nH]c3c2)n1
141.53

***
For the molecule CCCCCc1nc2c(N)ncnc2n1CCCCC [UNC10225389A] , what Nuclear Count is on record?
110.88

So what's the measured Nuclear Count for this one? COc1cccc(-c2cc(-c3c[nH]nc3-c3ccccn3)ccn2)c1 [UNC10225448A]
116.22

Which Nuclear Count value belongs to N#CCc1ccc(Nc2nccc(Nc3ccc(Oc4ccccc4)cc3)n2)cc1 ?
107.11

----------
Tested on: SH-SY5Y cells
Measurement protocol: Nuclear count from microscopy images (cellular growth and toxicity); also: reference of the scale not given here
Protocol conditions: PKIS2 primary screening
# key: entry, value: Nuclear Count
Lab note: record the figure alone, no unit after it.

Please give the measured Nuclear Count for this compound: C[C@@H](Oc1cc(-n2cnc3cc(-c4ccnc(NCCS(C)(=O)=O)c4)ccc32)sc1C(N)=O)c1ccccc1Cl [UNC10225234A]
68.66

Param item = COc1cc(Nc2nccc(N3CCC(NC(=O)c4cccc(NC(C)=O)c4)C3)n2)cc(OC)c1OC (stereo not shown) [GSK1379754] ; retrieve measured Nuclear Count.
143.24

Fill in: Nuclear Count of CC(=O)c1c(-c2ccncc2)[nH]c(-c2ccncc2)c1C [UNC10225248A] is ___
71.54

More entries:
May I ask what Nuclear Count has been recorded for Fc1ccc(-c2nn3cccc(F)c3c2-c2ccncc2)cc1 [UNC10225116A] ?
80.47

----------
System: SH-SY5Y cells
Protocol conditions: human, SH-SY5Y cells, 24 h, 1 µM
Readout name: Nuclear Count
// return just the number, without any unit appended

Answered examples (6):
Using the record for O=C(Nc1n[nH]c2cc(-c3ccoc3)ccc12)C1CC1 , report its Nuclear Count.
105.01

What does the data say about its Nuclear Count? Entry: O=C(Nc1n[nH]c2nc(-c3cccs3)c(Br)cc12)C1CCCC1
111.90

Requested field: Nuclear Count. Item: COc1cccc(C2=C(Nc3cccc(C(=O)O)c3)C(=O)NC2=O)c1 [UNC10225061A]
71.42

Quick check: Nuclear Count of COc1cccc(-c2ccc3c(NC(=O)C4CC4)n[nH]c3n2)c1 ?
105.81

So what's the measured Nuclear Count for this one? O=C1NC(=O)C(N2CCc3ccccc32)=C1c1cccc(Cl)c1 [UNC10225137A]
132.24

Form field: reported Nuclear Count of COc1cccc(C2=C(Nc3cc(Cl)c(O)c(Cl)c3)C(=O)NC2=O)c1 [UNC10225267A]
119.42

Continuing:
Quick one: Nuclear Count of CC(=O)Nc1n[nH]c2ncc(-c3ccccc3)cc12 ?
87.30

Which Nuclear Count is listed for COc1ccc(C2=C(Nc3cccc(C(=O)O)c3)C(=O)NC2=O)cc1 [UNC10225244A] ?
109.36

Fill blank: measured Nuclear Count of the compound Nc1n[nH]c2nnc(-c3ccccc3)c(-c3ccccc3)c12 [UNC10225185A] is ____.
95.91

For O=C(Nc1n[nH]c2cc(-c3ccsc3)ccc12)C1CC1 , what is its reported Nuclear Count?
130.18

I am curious: what Nuclear Count value has been reported for CCN1CCN(CCCC(=O)Nc2n[nH]c3nc(-c4ccc(O)cc4)c(Br)cc23)CC1 ?
67.01

What Nuclear Count value was documented for this compound, O=C1NC(=O)C(N2CCc3ccccc32)=C1c1ccccc1Cl [UNC10225255A] ?
86.30

Which Nuclear Count is reported for this compound? Nc1n[nH]c2nnc(-c3ccccc3)cc12
69.78

Quick one: Nuclear Count for COc1cccc(C2=C(Nc3ccc(Cl)c(C(=O)O)c3)C(=O)NC2=O)c1 [UNC10225038A] ?
91.66

Suppose we examine the compound COc1cccc(C2=C(Nc3cccc(O)c3)C(=O)NC2=O)c1 [UNC10225456A] ; what Nuclear Count value has been reported?
97.83

For O=C(Nc1n[nH]c2nc(-c3nccs3)c(Br)cc12)C1CC1 , what is its reported Nuclear Count?
130.73

Request the reported Nuclear Count associated with O=C(Nc1n[nH]c2nc(-c3ccc(O)cc3)ccc12)C1CC1
103.55

Param item = CCCC(=O)Nc1n[nH]c2ncc(-c3cccc4ccccc34)cc12 ; retrieve measured Nuclear Count.
59.85

Entry CCCC(=O)Nc1n[nH]c2ncccc12 has what Nuclear Count?
111.13

For the compound O=C1NC(=O)C(c2ccc(Cl)cc2)=C1Nc1cccc(Cl)c1 [UNC10225464A] , what Nuclear Count is on record?
85.62
